# folding stability dG per entry
B1: EEHEE_rd4_0469 (parent)
chain: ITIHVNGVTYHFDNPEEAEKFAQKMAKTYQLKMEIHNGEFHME

# Variants of: B1
# ASSAY TEXT: folding stability dG (cDNA display proteolysis); higher = more stable
# TEST SETTINGS: PBS, room temperature
PROPERTY: folding stability dG

>>> obs_value("E34A")
"1.03 kcal/mol"
>>> obs_value("G38N")
"0.855 kcal/mol"
>>> obs_value("E19V")
"1.47 kcal/mol"
>>> obs_value("K20Q")
"1.17 kcal/mol"
>>> obs_value("K32M")
"1.44 kcal/mol"
>>> obs_value("A26I")
"1.31 kcal/mol"
>>> obs_value("E34T")
"1.51 kcal/mol"
>>> obs_value("H36R")
"1.49 kcal/mol"
>>> obs_value("E17G")
"0.714 kcal/mol"
>>> obs_value("Y29L")
"1.17 kcal/mol"
>>> obs_value("G7I")
"2.4 kcal/mol"
>>> obs_value("N6Q")
"1.26 kcal/mol"
>>> obs_value("E39G")
"0.755 kcal/mol"
>>> obs_value("K20F")
"1.1 kcal/mol"
>>> obs_value("I35G")
"0.722 kcal/mol"
>>> obs_value("E34G")
"0.776 kcal/mol"
>>> obs_value("E43F")
"2.01 kcal/mol"
>>> obs_value("A22R")
"1.06 kcal/mol"
>>> obs_value("N6V")
"1.42 kcal/mol"
>>> obs_value("G38V")
"0.627 kcal/mol"
>>> obs_value("N14L")
"1.18 kcal/mol"
>>> obs_value("K32D")
"1.31 kcal/mol"
>>> obs_value("F12A")
"-0.214 kcal/mol"
>>> obs_value("D13E")
"1.11 kcal/mol"
>>> obs_value("V8G")
"0.858 kcal/mol"
>>> obs_value("Y29R")
"0.657 kcal/mol"
>>> obs_value("H11A")
"1.02 kcal/mol"
>>> obs_value("V8K")
"1.38 kcal/mol"
>>> obs_value("Q30W")
"1.11 kcal/mol"
>>> obs_value("F21A")
"0.133 kcal/mol"
>>> obs_value("M42A")
"0.838 kcal/mol"
>>> obs_value("T2L")
"1.25 kcal/mol"
>>> obs_value("E19M")
"1.61 kcal/mol"
>>> obs_value("P15A")
"1.14 kcal/mol"
>>> obs_value("I3R")
"0.201 kcal/mol"
>>> obs_value("V8T")
"1.12 kcal/mol"
>>> obs_value("K32I")
"1.66 kcal/mol"
>>> obs_value("V8S")
"1.09 kcal/mol"
>>> obs_value("Y29M")
"0.899 kcal/mol"
>>> obs_value("E39N")
"0.81 kcal/mol"
>>> obs_value("P15N")
"0.994 kcal/mol"
>>> obs_value("N37T")
"0.767 kcal/mol"
>>> obs_value("M42E")
"0.615 kcal/mol"
>>> obs_value("D13I")
"1.3 kcal/mol"
>>> obs_value("A22Q")
"0.662 kcal/mol"
>>> obs_value("A26F")
"1.19 kcal/mol"
>>> obs_value("F12H")
"-0.29 kcal/mol"
>>> obs_value("M42K")
"0.711 kcal/mol"
>>> obs_value("H4D")
"0.586 kcal/mol"
>>> obs_value("E34W")
"1.54 kcal/mol"
>>> obs_value("L31N")
"1 kcal/mol"
>>> obs_value("F21S")
"-0.647 kcal/mol"
>>> obs_value("E39Q")
"1.11 kcal/mol"
>>> obs_value("P15Q")
"1.03 kcal/mol"
>>> obs_value("F40C")
"1.79 kcal/mol"
>>> obs_value("T2N")
"1.17 kcal/mol"
>>> obs_value("A18D")
"-0.444 kcal/mol"
>>> obs_value("V8Y")
"1.29 kcal/mol"
>>> obs_value("N37S")
"0.831 kcal/mol"
>>> obs_value("G38T")
"0.717 kcal/mol"
>>> obs_value("D13V")
"1.21 kcal/mol"
>>> obs_value("N6E")
"1.2 kcal/mol"
>>> obs_value("E43P")
"0.817 kcal/mol"
>>> obs_value("H41E")
"0.697 kcal/mol"
>>> obs_value("I1M")
"0.992 kcal/mol"
>>> obs_value("H36K")
"1.28 kcal/mol"
>>> obs_value("L31D")
"1.3 kcal/mol"
>>> obs_value("H41W")
"1.57 kcal/mol"
>>> obs_value("A18H")
"0.114 kcal/mol"
>>> obs_value("I3P")
"-0.854 kcal/mol"
>>> obs_value("I1P")
"0.64 kcal/mol"
>>> obs_value("I35M")
"0.949 kcal/mol"
>>> obs_value("P15M")
"1.5 kcal/mol"
>>> obs_value("Y10W")
"1.07 kcal/mol"
>>> obs_value("N14Q")
"1 kcal/mol"
>>> obs_value("E16M")
"1.15 kcal/mol"
>>> obs_value("K27R")
"1.09 kcal/mol"
>>> obs_value("N14R")
"1.09 kcal/mol"
>>> obs_value("K20T")
"1.19 kcal/mol"
>>> obs_value("Y29S")
"1.05 kcal/mol"
>>> obs_value("M25L")
"1.12 kcal/mol"
>>> obs_value("K32V")
"1.62 kcal/mol"
>>> obs_value("E43L")
"1.61 kcal/mol"
>>> obs_value("N14D")
"1.19 kcal/mol"
>>> obs_value("T28L")
"1.97 kcal/mol"
>>> obs_value("H11P")
"0.279 kcal/mol"
>>> obs_value("E34I")
"1.67 kcal/mol"
>>> obs_value("G38L")
"0.917 kcal/mol"
>>> obs_value("H36F")
"1.19 kcal/mol"
>>> obs_value("H11M")
"1.03 kcal/mol"
>>> obs_value("F40Q")
"0.754 kcal/mol"
